This collection of values is drawn from PubChem BioAssay (NCI).

system: NCI-H522 lung; experiment: NCI-60 one-dose screen, 48 h (100 = growth as untreated, 0 = no growth, -100 = all killed); conditions: 10 µM unless noted
The panel holds about 83,000 compounds, 20% with a hit somewhere; the sample as a whole holds those more often. Active and inactive are the calls of the source. Rule for the calls: active = growth percent below 10; inactive = the rest.
# growth annotations

Consider the reported growth for these compounds:
{"Compound": "O=c1cc(-c2ccccc2)nc2sc(-c3c[nH]c4ccc(F)cc34)nn12", "growth": "62.6% (inactive)"}
{"Compound": "CCNC(=O)Oc1ccc(/C(=C(/C)c2ccccc2)c2ccc(OCCN3CCCC3)cc2)cc1", "growth": "83.3% (inactive)"}
{"Compound": "O=C1Nc2ccc(Cl)cc2/C1=C/c1ccc(OCc2ccc(F)cc2)cc1", "growth": "90.4% (inactive)"}
{"Compound": "COc1ccc(OC)c([C@H]2c3[nH]c4ccccc4c3C[C@H]3C(=O)N(CCCCCCC(=O)NO)CC(=O)N23)c1", "growth": "69.2% (inactive)"}
{"Compound": "COc1cc([C@H]2OC[C@H]3[C@@H]2CO[C@@H]3c2ccc(O)c(OC)c2)ccc1O", "growth": "75.8% (inactive)"}
{"Compound": "COCCOc1ccc(-c2csc(NC(=O)CN3CCN(CCO)CC3)n2)cc1NS(=O)(=O)c1cccc2c(N(C)C)cccc12", "growth": "24.1% (inactive)"}
{"Compound": "CC1=C2C(=C[C@@](C)(COS(N)(=O)=O)[C@@H]2O)C(=O)[C@](C)(O)C12CC2", "growth": "70.5% (inactive)"}
{"Compound": "C#C[C@]1(O)CC[C@H]2[C@@H]3CC=C4c5sc(Nc6cc(Cl)ccn6)nc5CC[C@]4(C)[C@H]3CC[C@@]21C", "growth": "30.2% (inactive)"}

Input O=C1C[C@@H](c2ccccc2)Oc2c(Cc3ccccc3O)c(O)c(Cc3cc(Cc4cc(Cc5ccccc5O)ccc4O)ccc3O)c(O)c21 . Output growth: 107% (inactive)

Input COc1ccc(C(=O)n2cc(C=O)c3ccccc32)cc1 . Output growth: 98.6% (inactive)

Input Nc1cc(F)ccc1NC(=O)c1ccc(NC(=O)C/C=C/c2cccnc2)cn1 . Output growth: -4.98% (active)

Input NS(=O)(=O)Oc1ccc2nc(Nc3ccc(F)c(F)c3)ccc2c1 . Output growth: 91.4% (inactive)

Input Oc1ccc(CSc2nnc(-c3ccncc3)n2-c2ccccc2)c2cccnc12 . Output growth: 3.95% (active)

* * *

system: CCRF-CEM leukemia; assay: NCI-60 one-dose screen, 48 h (100 = growth as untreated, 0 = no growth, -100 = all killed); conditions: 10 µM unless noted
Compounds without any hit were thinned out: in the full panel of roughly 83,000, 20% have a hit. Calls of active or inactive are those of the source. How the source made its calls: active means growth percent below 10; inactive means the rest.
# growth annotations

{"Compound structure": "O=C(N/N=C\\c1ccc(Cl)cc1)c1ccc2nc(-c3ccc(Br)cc3)[nH]c2c1", "growth": "26.3% (inactive)"}
{"Compound structure": "O=C(COc1ccc(/C=C2\\SC(=O)NC2=O)cc1)Nc1ccc(C(=O)/C=C/c2cc3ccccc3nc2Cl)cc1", "growth": "35.4% (inactive)"}
{"Compound structure": "CCOC(=O)Nc1ccc(-c2nc(-c3cccc(O)c3)c(-c3ccnc(Br)c3)[nH]2)cc1", "growth": "22.9% (inactive)"}
{"Compound structure": "O=C(c1ccc(O)cc1)[C@@H]1[C@@H]2CCCN2[C@@]2(C(=O)N(C(=O)c3ccc(F)cc3)c3ccccc32)[C@H]1c1ccc(F)cc1", "growth": "67.2% (inactive)"}
{"Compound structure": "CCNC(=O)Oc1ccc(/C(=C(/C)c2ccccc2)c2ccc(OCCN3CCCC3)cc2)cc1", "growth": "64% (inactive)"}
{"Compound structure": "Cc1ccc(Cc2cnc(NC(=O)/C(C#N)=C/c3ccc(-c4ccc(Cl)cc4)o3)s2)cc1", "growth": "98.4% (inactive)"}

Input COc1ccc(-c2nc(SCC(C)C)nc(N/N=C\c3cccc([N+](=O)[O-])c3)c2C#N)cc1 . Output growth: 80.9% (inactive)

Input O=[N+]([O-])c1ccc(-c2nnc(SCc3ccc(O)c4ncccc34)o2)cc1 . Output growth: 19.2% (inactive)
